- protocol-text: qHTS Primary assay for Inhibitors of Plasmodium falciparum Dd2 growth in vitro; note: nearly all actives have a fitted effect of over 65% in size
- condition-set: P. falciparum Dd2 growth, SYBR Green, 72 h; series mostly up to 28.9 µM
In all, about 120,000 compounds went through this assay and about 5,300 (4.4%) were called active. About 22% were inconclusive and are not listed. Calls come from the whole dose curve; as a rule, active = well fitted inhibition curve with a large enough effect; inconclusive = small, poorly fitted or top-dose-only effect; inactive = no such curve, though single readings can be large or run the other way. The full list was thinned out, with actives kept by preference.
Classes used: 1 (yes) for active, 0 (no) for inactive

{"compound": "COc1ccc(Nc2nc(-c3cccc(OC)c3OC)no2)cc1", "group": "0 (no)"}
{"compound": "COc1cccc(C(=O)N2CCC(Oc3ccc(C(=O)N4CCOCC4)cn3)CC2)c1", "group": "0 (no)"}
{"compound": "CCOC(=O)c1c(NC(=O)c2cc(-c3ccc(Cl)cc3)on2)sc2c1CCCC2", "group": "0 (no)"}
{"compound": "CC1CCC2(CC1)OCC(C(=O)NCc1ccc3c(c1)OCO3)N2C(=O)c1ccccc1F (centres undefined)", "group": "0 (no)"}
{"compound": "CC(C)CCN1CCC(N2CCN(C(=O)C3CCC3)CC2)C1=O (centres undefined)", "group": "0 (no)"}
{"compound": "CNC(=O)[C@@H]1CN(C(=O)Cc2cccnc2)C[C@H]1COC", "group": "0 (no)"}
{"compound": "O=C(NC1CCCCCC1)c1ccc2c(c1)CC(=O)N2Cc1cccc(F)c1", "group": "0 (no)"}
{"compound": "CC1CCCN(Cc2c(O)ccc3c(=O)c(Oc4ccc(C(C)(C)C)cc4)c(C(F)(F)F)oc23)C1 (centres undefined)", "group": "1 (yes)"}
{"compound": "CC(=O)N1CCC(C(=O)NCC(=O)N2CCCCCCNC(=O)CC2c2ccccc2)CC1 (centres undefined)", "group": "0 (no)"}
{"compound": "O=C(c1cccc(OC2CN(Cc3nccs3)C2)c1)N1CCOCC1", "group": "1 (yes)"}
{"compound": "Cc1nc2c(c(-c3ccc(O)cc3)n1)CN(C(=O)c1ccccc1C)CCC2", "group": "0 (no)"}
{"compound": "Cc1ccc(F)cc1NC(=O)CCSc1nc(-c2ccco2)cc(C(F)(F)F)n1", "group": "1 (yes)"}
{"compound": "COc1ccccc1C(=O)NCc1ccnc2[nH]ccc12", "group": "0 (no)"}
{"compound": "COCCNc1ncccc1-c1noc([C@@H]2CCCN2Cc2ccc3c(c2)OCO3)n1", "group": "0 (no)"}
{"compound": "COCC(=O)NC[C@H]1CCN(Cc2cn(C)c3ccccc23)C[C@H]1N(C)C", "group": "0 (no)"}
{"compound": "CCc1cccc(-n2nnnc2N2CCN(C(=O)Nc3ccc(C)c(OC)c3)CC2)c1", "group": "0 (no)"}
{"compound": "CCC(CC)c1cc([C@H]2CN3CC[C@H]2C[C@@H]3CNC(=O)NCc2ccccc2)nc(-c2ccncc2)n1", "group": "1 (yes)"}
{"compound": "CCOC(=O)c1c(NC(=O)Cc2coc3ccc(CC)cc23)sc2c1CCC2", "group": "0 (no)"}
{"compound": "Cn1cc(CNC(=O)C[C@@H]2C[C@H]3O[C@H](CNC(=O)Nc4cccs4)[C@@H](O)[C@H]3O2)cn1", "group": "0 (no)"}
{"compound": "COC(=O)[C@@H]1Cc2c([nH]c3ccccc23)[C@H]2C[C@@H](NCCN3CCOCC3)C[C@@H](c3ccccc3F)N21", "group": "0 (no)"}
{"compound": "COc1ccc(C(=O)Nc2ccc(-c3noc([C@@H]4CCCN4Cc4ccc(S(C)(=O)=O)cc4)n3)cn2)cc1", "group": "0 (no)"}
{"compound": "O=C(c1ccccc1)N1CCC2(CC1)C(=O)NCN2C(=O)CCCN1CCCC1", "group": "0 (no)"}
{"compound": "CCCn1c2ccccc2c2cnn(CC(=O)NCC3CCN(Cc4ccc(C)cc4)CC3)c(=O)c21", "group": "0 (no)"}
{"compound": "COCCN1CCCCCC(O)c2cc(C(=O)Nc3cccc(OC)c3)ccc21 (centres undefined)", "group": "0 (no)"}
{"compound": "Cc1cccc(NC(=O)CSc2nc(-c3ccco3)cc(C(F)(F)F)n2)c1C", "group": "0 (no)"}
{"compound": "O=C(Cn1cc(SCc2cccc(Cl)c2)c2ccccc21)N1CCCCC1", "group": "0 (no)"}
{"compound": "CCC(CC)c1cc([C@H]2CN3CC[C@H]2C[C@@H]3CNS(=O)(=O)Cc2ccccc2)nc(-c2ccncc2)n1", "group": "0 (no)"}
{"compound": "COc1ccccc1C(=O)NCCn1cc(SCc2ccccc2Cl)c2ccccc21", "group": "1 (yes)"}
{"compound": "CCOC(=O)c1ccc(NC(=O)c2c(NCc3cccs3)sc3c2CCCC3)cc1", "group": "1 (yes)"}

---

- protocol-text: qHTS Primary assay for Inhibitors of Plasmodium falciparum Dd2 growth in vitro; note: nearly all actives have a fitted effect of over 65% in size
- condition-set: P. falciparum Dd2 growth, SYBR Green, 72 h; series mostly up to 28.9 µM
- Excerpt: Malaria, a parasitic disease spread to humans through the bite of a Plasmodium infected Anopheles mosquito, continues to be a global health burden affecting millions of people, with an estimated 228 million cases and 405,000 deaths in 2018. […] Malaria-vivax Assay Protocol: PROTOCOL TABLE (as described by Inglese et al., 2007) SEQUENCE No. (e.g., 1, 2, 3, etc.); […] […] Compound Management for Quantitative High-Throughput Screening. […]
Out of some 120,000 compounds screened, about 5,300 (4.4%) were called active. About 22% were inconclusive and are not listed. Calls follow the shape of the dose curve; as a rule, active = well fitted inhibition curve with a large enough effect; inconclusive = small, poorly fitted or top-dose-only effect; inactive = no such curve, though single readings can be large or run the other way. The full list was thinned out, with actives kept by preference.
Classes used: active, inactive

{"compound": "COc1ccc(NC(=O)Cn2c(=O)n(Cc3ccc(C(=O)NCc4ccccc4Cl)cc3)c(=O)c3ccccc32)cc1", "group": "active"}
{"compound": "O=C(NC1CCNC1)C1CCN(c2nc(-c3ccccc3)nc3c2CCC3)CC1 (stereo unspecified)", "group": "active"}
{"compound": "COc1cc2c(cc1Oc1cccc(N(C)C)c1)NC(=O)C21CCN(Cc2ccccn2)CC1", "group": "inactive"}
{"compound": "COc1ccc(S(=O)(=O)c2cn(C)c3cc(N4CCCCC4)c(F)cc3c2=O)cc1", "group": "active"}
{"compound": "COC[C@H]1CCCN1Cc1nc(C2(O)CCN(C(=O)C3CCOCC3)CC2)cs1", "group": "inactive"}
{"compound": "c1cncc(CNc2cc(-c3cnc4ccccc4n3)c3cc[nH]c3n2)c1", "group": "active"}
{"compound": "COc1ccc(-c2noc(CC3CCN(C(=O)Cc4ccc(OC)c(OC)c4)CC3)n2)cc1", "group": "active"}
{"compound": "CSc1nccc(N2CCC(c3nccn3Cc3cccnc3)CC2)n1", "group": "inactive"}
{"compound": "COc1cc2c(cc1OC)C(CNC(=O)c1cccc(Cl)c1)N(C(=O)Nc1ccccc1)CC2 (stereo unspecified)", "group": "inactive"}
{"compound": "COc1cc2c(cc1OCc1ccncc1)NC(=O)C21CCN(c2ncccn2)CC1", "group": "inactive"}
{"compound": "CN1CCCN(C(=O)c2ccccc2OC(F)(F)F)c2ccccc21", "group": "inactive"}
{"compound": "CCOC(=O)c1ccc(N2C(=O)c3n[nH]c(C)c3C2c2ccc(O)c(OC)c2)cc1 (stereo unspecified)", "group": "inactive"}
{"compound": "COc1cccc(C(=O)N2CCCN(C(=O)C3CC3)c3ccccc32)c1OC", "group": "inactive"}
{"compound": "Fc1ccc(-c2cc(NC3CCCC3)nc3[nH]ccc23)nc1", "group": "inactive"}
{"compound": "O=C(NCCN1CCCCC1)C1Cn2cccc2C(=O)N1Cc1ccccc1 (stereo unspecified)", "group": "inactive"}
{"compound": "Cc1ccc(S(=O)(=O)c2cn(Cc3ccccc3)c3cc(N4CCCC4)c(F)cc3c2=O)c(C)c1", "group": "active"}
{"compound": "CCOC(=O)c1ccc(NC(=O)C2CC(=O)N(c3ccc(C(C)C)cc3)C2)cc1 (stereo unspecified)", "group": "inactive"}
{"compound": "COc1ccc(NC(=O)c2ccc3c(c2)N(S(C)(=O)=O)CC3)cc1OC", "group": "inactive"}
{"compound": "COc1cc2c(cc1Oc1cccc(N(C)C)c1)NC(=O)C21CCN(c2cnccn2)CC1", "group": "active"}
{"compound": "COCCOCC(=O)N1CCCC(c2nc(-c3ccccc3)no2)CCNC(=O)CC1 (stereo unspecified)", "group": "inactive"}
{"compound": "O=C1[C@H]2CN(Cc3ccccc3F)C[C@H]2C(=O)N1CCN1CCc2ccccc2C1", "group": "active"}
{"compound": "O=C(NCc1ccccc1)[C@H]1CN2CCC1C[C@@H]2Cn1cc(-c2ccc(F)cc2)nn1 (stereo partly specified)", "group": "inactive"}
{"compound": "CNC(=O)[C@H]1C[C@H](Oc2ccccc2)CN1C(=O)c1ccccc1", "group": "inactive"}
{"compound": "O=C(c1nc(-c2cccnc2)c2cnccn12)N1CCN(c2ncccn2)CC1", "group": "inactive"}
{"compound": "Cn1ccnc1C(=O)N1CCC2(CC1)CN(c1ncccn1)CC2CO (stereo unspecified)", "group": "inactive"}
{"compound": "O=C(CSc1oc(-c2ccc(F)cc2)nc1S(=O)(=O)c1ccc(Br)cc1)NC1CCCCC1", "group": "inactive"}
{"compound": "Cc1ccc(Cl)cc1NC(=O)CN1C(=O)NC2(CCC(C)CC2)C1=O (stereo unspecified)", "group": "inactive"}
{"compound": "O=C(CCc1cc(Cl)no1)N1CCCC(c2nc(C3CCOCC3)no2)C1 (stereo unspecified)", "group": "inactive"}
{"compound": "Cc1ccc(S(=O)(=O)NC[C@H]2C[C@@H]3CCN2C[C@@H]3CN2CCN(c3ncccn3)CC2)cc1", "group": "inactive"}
{"compound": "O=C(c1cc(F)ccc1F)N1CCC2(CC1)CC(N(Cc1ccccc1)C1CC1)CCO2 (stereo unspecified)", "group": "inactive"}
{"compound": "O=C(C1CCN(c2nc(-c3ccccc3)nc3c2CCC3)CC1)N1CCC[C@H]1CO", "group": "active"}

Origin of measurements: PubChem BioAssay AID1347417
